Target: T1, GST-Abp1 SH3 domain (S. cerevisiae, UniProt P15891 532-592)
T1 construct: SH3 domain of Abp1, S. cerevisiae
T1 sequence (looked up): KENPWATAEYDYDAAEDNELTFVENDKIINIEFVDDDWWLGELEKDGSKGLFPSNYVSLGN
Test: SPR; BIAcoreX; GST-fused SH3 domains (and GST as control) amine-coupled to CM5 chips; peptides flowed at 25°C in 10 mM HEPES, 150 mM NaCl, 3.4 mM EDTA, 0.005% P20, pH 7.4, 15 μl/min, 500 μM to 65 nM; steady-state model
Settings: both partners purified
property.name: Kd

INSERT INTO results (binder, property_name, data_value) VALUES
  ('RRPPPPPIPSTQKP (stretch of Ynl094w, S. cerevisiae; also called tetradecapeptide in the Ynl094w protein) [Ynl094w peptide RRPPPPPIPSTQKP]', 'Kd', '≥ 100 µM');
